Attribution: the supplement of paper PMC8633005

Please respond with reported drug sensitivity score for every item in the list.
System: Bowes
Measurement Notes: drug sensitivity score (DSS) (DSS (unitless, 0-50 scale)); higher = more sensitive (stronger viability inhibition); extreme values may be limits of the assay
Assay Context: 72 h; culture: 2D
// return a plain number; no unit text

// recorded drug sensitivity score for `Nc1nc2cc(-c3ccc4ncc(C(=O)N5CCOCC5)n4c3)ccc2o1` : 0

// recorded drug sensitivity score for `C[C@]12CC[C@H](O)CC1=CC[C@@H]1[C@@H]2CC[C@]2(C)C(c3cccnc3)=CC[C@@H]12` : 0

// recorded drug sensitivity score for CCN(CC)CCCC(C)Nc1ccnc2cc(Cl)ccc12 (stereo not drawn) : 7

// recorded drug sensitivity score for `Nc1nc(F)nc2c1ncn2[C@@H]1O[C@H](CO)[C@@H](O)[C@@H]1O` : 0

// recorded drug sensitivity score for `O=C(Nc1c[nH]nc1-c1nc2ccc(CN3CCOCC3)cc2[nH]1)NC1CC1` : 8

// recorded drug sensitivity score for O=C(/C=C\n1cnc(-c2cc(C(F)(F)F)cc(C(F)(F)F)c2)n1)NNc1cnccn1 [Selinexor] : 12.4

// recorded drug sensitivity score for `CN[C@@H](C)C(=O)N[C@H](C(=O)N1CCC[C@H]1c1nc(C(=O)c2ccc(F)cc2)cs1)C1CCCCC1` : 3

// recorded drug sensitivity score for `C[C@@H]1CN(CC(=O)Nc2ccc3c(c2)Cc2cccc(-c4cc(=O)cc(N5CCOCC5)o4)c2S3)C[C@H](C)O1` : 2.5
